Data credit: the SangsterLogP compilation

Conditions: pH 3.5
quantity measured: logD
Numbers only.

[Q] Output measured logD for this item: `COc1cccc(NC(=S)c2ccc(O)cc2O)c1`
[A] 3.54

###

I'd appreciate it if you could supply logD values for the items below.
Experiment: method code SF-AS, from DOI: 10.1002/qsar.200430865
Settings: pH 3.5
Numbers only.

The cases that follow already have their logD on record.
[
  {
    "record smiles": "Oc1ccc(C(=S)Nc2cc(Cl)c(Cl)cc2Cl)c(O)c1",
    "logD": 4.92
  },
  {
    "record smiles": "Oc1ccc(C(=S)Nc2cccc(C(F)(F)F)c2)c(O)c1",
    "logD": 4.26
  },
  {
    "record smiles": "Oc1ccc(C(=S)Nc2cc(Cl)ccc2O)c(O)c1",
    "logD": 3.58
  },
  {
    "record smiles": "CCOc1ccc(NC(=S)c2ccc(O)cc2O)cc1",
    "logD": 3.49
  },
  {
    "record smiles": "CCOc1ccccc1NC(=S)c1ccc(O)cc1O",
    "logD": 3.8
  }
]

Return reported logD values for all items listed beneath this line.
1. Oc1ccc(C(=S)Nc2cccc(Cl)c2)c(O)c1
2. Oc1ccc(C(=S)Nc2ccccc2F)c(O)c1
3. Oc1ccc(C(=S)Nc2cccc(F)c2)c(O)c1
4. Oc1ccc(C(=S)Nc2ccc(Cl)cc2Cl)c(O)c1
5. Oc1ccc(C(=S)Nc2cccc(Br)c2)c(O)c1
6. CC(=O)c1cccc(NC(=S)c2ccc(O)cc2O)c1
7. N#Cc1ccc(NC(=S)c2ccc(O)cc2O)cc1

[A]
[3.9, 3.36, 3.41, 4.26, 3.46, 2.36, 2.41]

###

Exercise: state measured logD for each of the molecules provided.
Assay: method code SF-AS, from DOI: 10.1002/qsar.200430865
Settings: pH 3.5
Give bare numbers.

Some molecules with known logD results, for comparison:
[
  {
    "record smiles": "COC(=O)c1ccccc1NC(=S)c1ccc(O)cc1O",
    "logD": 2.92
  },
  {
    "record smiles": "Oc1ccc(C(=S)Nc2cccc(Cl)c2Cl)c(O)c1",
    "logD": 4.02
  },
  {
    "record smiles": "Oc1ccc(C(=S)Nc2ccc(Cl)c(F)c2)c(O)c1",
    "logD": 4.43
  },
  {
    "record smiles": "Oc1ccc(C(=S)Nc2ccc(Br)cc2)c(O)c1",
    "logD": 4.02
  }
]

[Q] Look up logD of `Oc1ccc(C(=S)Nc2ccc(F)cc2F)c(O)c1` and report it.
[A] 3.54
